Biological target: T1, CTLA4-Fc fusion protein (human, biotinylated where used as CTLA4-Fc-Biotin (Examples 5.1-5.3))
T1 construct: expressed in HEK293 cells; also called human CTLA4-Fc protein; CTLA4-Fc antigen protein
T1 sequence (chain, as listed by the source limits assumed): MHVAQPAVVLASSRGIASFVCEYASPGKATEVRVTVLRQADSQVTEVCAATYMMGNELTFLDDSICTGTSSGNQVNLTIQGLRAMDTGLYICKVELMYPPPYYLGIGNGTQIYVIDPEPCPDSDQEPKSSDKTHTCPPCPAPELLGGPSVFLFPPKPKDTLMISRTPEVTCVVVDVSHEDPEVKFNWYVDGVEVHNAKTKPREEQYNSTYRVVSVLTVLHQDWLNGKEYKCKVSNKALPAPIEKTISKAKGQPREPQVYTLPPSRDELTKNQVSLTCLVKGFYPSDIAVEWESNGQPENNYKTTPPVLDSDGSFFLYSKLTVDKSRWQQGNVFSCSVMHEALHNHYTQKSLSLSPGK
Test: ELISA, CTLA4-Fc coated, 10 ng VHH/well
Below, each of the binders is paired with its reported OD (against CTLA4) value.
Respond numerically; units are OD405 and should not be typed.

Look over these answered cases.
{"binder": "CTLA4 heavy chain single domain antibody No. J17 (VHH, Camel VHH expressed in E. coli (PET32b), nickel-purified) VHH: QVQLQESGGGSVQAGGSLRLSCAASGFTLSSYTMTWLRQAPGKGLEWVSTINSGGSTSYADSVKGRFAISRDNAKNILYLQLNSLEIEDTGMYYCQGGLTQRGQGTQVTVSS", "result_number": 1.4}
{"binder": "CTLA4 heavy chain single domain antibody No. C22 (VHH, Camel VHH expressed in E. coli (PET32b), nickel-purified) VHH: QVQLQESGGGSVQAGGSLRLSCTVSQHTSRYYYMAWFRQAPGKEREGVASIWTGGGTPGYADSAKGRFTISTDNAKNTIYLQMNSLKPEDTAMYYCAADDRGGRWSLGTMAVGGYKYWGQGTQVTVSS", "result_number": 0.848}

Recorded OD (against CTLA4) of CTLA4 heavy chain single domain antibody No. C1 (VHH, Camel VHH expressed in E. coli (PET32b), nickel-purified, detected by anti-His tag antibody) VHH: QVQLQESGGGSVQAGGSLGLSCAASGYIYSAYCMGWFRQAPGKEREGVAAIYLGGGSTYYADSVKGRFTISQDIAKNTLYLQMNSLKPEDTAMYSCAADVIPTETCLGGSWSGPFGYWGQGTQVTVSS , please. 1.2

Data request, read-out OD (against CTLA4), for CTLA4 heavy chain single domain antibody No. J5 (VHH, Camel VHH expressed in E. coli (PET32b), nickel-purified) VHH: QVQLQESGGGSVQAGGSLRLSCAASGYTYSTYCMAWFRQVPEKERERVASIYTGGGTTYYADSVKGRFTISLDNAKNTLYLQMNSLKPEDTAMYYCAKSAARCDSSRDVNRLGYWGQGTQVTVSS 1.21
